# Test system: PPARg DBDmut IVT, anti-PPARg (DBD mutation: PPARg1 K132A/R137A, NR concentration 270 nM)
# assay.protocol: PBM binding z-score (relative to random genomic background probes); higher = stronger binding; sequences stand for … in GC…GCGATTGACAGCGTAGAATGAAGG
readout.type: PBM binding z-score
Could you keep your reply to the number by itself?

CCTAGCAGGCCAGGGTCACCCAAGCATTTCGCTT :: -1.42
CCTACTGGGCCATACAGAGGTCATTGATCATATG :: 0.445
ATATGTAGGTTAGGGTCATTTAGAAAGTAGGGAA :: 2.64
CCCACTGGGCCATTCAGAGGTCATTGATCATATG :: -0.746
CATCCAAGGTCAAAGGTCAGTGAAGAGATGACGG :: 3.63

Reported PBM binding z-score for CGTCCAAGGGCAATGCTAGGTCAGTGAAAGCATT was -1.04

// recorded PBM binding z-score for CGAACTAGGTCACCATGACAGTGAAGAGGTTGGA : 1.33

According to the records, this sequence CCTACTGGGCCAAAGGCCATTGATTCCAATGCTC displays PBM binding z-score of -0.289

Recorded result, TAGCCTAGGTCATTCAGGGGCCAGTATGGAAAGC , PBM binding z-score: -0.26

====

Reported PBM binding z-score values are given for each entry in this list.
# Test system: VDR:RXRa (NR concentration 270 nM, RXRa partner concentration 90 nM)
# assay.protocol: PBM binding z-score (relative to random genomic background probes); higher = stronger binding; sequences stand for … in GC…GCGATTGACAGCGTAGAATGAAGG
Just the number, please.

Examples with answers:
CCTCGGAGGACAACCGGAGGTCAGAGCTGCCAGA :: 1.9
ATCGAAAGGTCGAAGGTGAGTACACCCACCCGAA :: 3.97
CGAACTAGGTCAAAGGATAGTGAAAGGCGACGTA :: 1.12
CTATGGAGGTTAAGGGGGTCATTCAGTTTGAAAG :: 8.03
ATATGTAGGTTAGGGTCAATCAGAAAGTAGGGAA :: 3.8
TCGAGTAGGTTACGGGGGCAGTCAGGGATGAAGA :: 2.8
ATATCTAGGTTAGGGTCATTCAGAAAGTAGGGAA :: 4.41
ATCCAAAGGTCGAGGTGAGTATAGAGAAAGGGAA :: 3.05

// field: PBM binding z-score; key: CCGAGTAGGTTACGAGGGAGCATTCAGTGCGAAT ; value = 1.11

// TCAGATAGGTAAAGGTGAAAGTCGAACGATATGA : PBM binding z-score value = 0.979

// PBM binding z-score lookup, sequence = CTATGTAGGTTAAGGGGGTCATTTAGTTTGAAAG , result: 7.32

Reported PBM binding z-score for TAGCCTAGGTCATTGGACCAGTATAGTACGCATC was 2.08

====

# Tested on: RARb:RXRa (NR concentration 270 nM, RXRa partner concentration 90 nM)
# assay.protocol: PBM binding z-score (relative to random genomic background probes); higher = stronger binding; sequences stand for … in GC…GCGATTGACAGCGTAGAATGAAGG
# PBM binding z-score >= 4 gives true (1), anything below gives false (0)

stdin: Can ACTAGTTGGTCAGCTGAGGTCACACACAATTCGG be said to have PBM binding z-score at or above 4?
stdout: false (0)

stdin: Identify whether the reported PBM binding z-score of the following sequence is 4 or greater: CGAACTAGGTCACCAGAACAGTGAAGAGGTTGGA
stdout: true (1)
